Procedure Text: RP-HPLC retention on Cosmosil Cholester column, buffer pH 7.4-acetonitrile
Type: physicochemical
Test Parameters: extrapolated to buffer pH 7.4 as mobile phase, 25 °C
Property Label: log kw, Cholester

Below, 5 compounds whose answers are already recorded.
O=c1c(Cc2ccccc2)nnc2n1CCN2c1ccc(Cl)cc1 = 2.98
O=c1c(-c2ccco2)nnc2n1CCN2c1cccc(Cl)c1 = 2.36
O=c1c(Cc2ccccc2Cl)nnc2n1CCN2c1ccccc1 = 2.83
COc1ccccc1N1CCn2c1nnc(-c1ccccc1)c2=O = 1.69
O=c1c(Cc2cccc(Cl)c2)nnc2n1CCN2c1ccccc1 = 2.90

[P] COC(=O)Cc1nnc2n(c1=O)CCN2c1ccccc1
[Q] Cc1ccc(Cc2nnc3n(c2=O)CCN3c2ccc(C)cc2)cc1
Qu. For the pair P and Q , which entry has the numerically smaller recorded log kw, Cholester? # respond with the chosen item's label
Ans. P
